Data origin, for the record: ChEMBL document CHEMBL6071131

target: Epidermal growth factor receptor (Homo sapiens) (UniProt P00533); experiment: Inhibition of human EGFR assessed as residual activity at 50 uM relative to control
Sequence (P00533 whole entry): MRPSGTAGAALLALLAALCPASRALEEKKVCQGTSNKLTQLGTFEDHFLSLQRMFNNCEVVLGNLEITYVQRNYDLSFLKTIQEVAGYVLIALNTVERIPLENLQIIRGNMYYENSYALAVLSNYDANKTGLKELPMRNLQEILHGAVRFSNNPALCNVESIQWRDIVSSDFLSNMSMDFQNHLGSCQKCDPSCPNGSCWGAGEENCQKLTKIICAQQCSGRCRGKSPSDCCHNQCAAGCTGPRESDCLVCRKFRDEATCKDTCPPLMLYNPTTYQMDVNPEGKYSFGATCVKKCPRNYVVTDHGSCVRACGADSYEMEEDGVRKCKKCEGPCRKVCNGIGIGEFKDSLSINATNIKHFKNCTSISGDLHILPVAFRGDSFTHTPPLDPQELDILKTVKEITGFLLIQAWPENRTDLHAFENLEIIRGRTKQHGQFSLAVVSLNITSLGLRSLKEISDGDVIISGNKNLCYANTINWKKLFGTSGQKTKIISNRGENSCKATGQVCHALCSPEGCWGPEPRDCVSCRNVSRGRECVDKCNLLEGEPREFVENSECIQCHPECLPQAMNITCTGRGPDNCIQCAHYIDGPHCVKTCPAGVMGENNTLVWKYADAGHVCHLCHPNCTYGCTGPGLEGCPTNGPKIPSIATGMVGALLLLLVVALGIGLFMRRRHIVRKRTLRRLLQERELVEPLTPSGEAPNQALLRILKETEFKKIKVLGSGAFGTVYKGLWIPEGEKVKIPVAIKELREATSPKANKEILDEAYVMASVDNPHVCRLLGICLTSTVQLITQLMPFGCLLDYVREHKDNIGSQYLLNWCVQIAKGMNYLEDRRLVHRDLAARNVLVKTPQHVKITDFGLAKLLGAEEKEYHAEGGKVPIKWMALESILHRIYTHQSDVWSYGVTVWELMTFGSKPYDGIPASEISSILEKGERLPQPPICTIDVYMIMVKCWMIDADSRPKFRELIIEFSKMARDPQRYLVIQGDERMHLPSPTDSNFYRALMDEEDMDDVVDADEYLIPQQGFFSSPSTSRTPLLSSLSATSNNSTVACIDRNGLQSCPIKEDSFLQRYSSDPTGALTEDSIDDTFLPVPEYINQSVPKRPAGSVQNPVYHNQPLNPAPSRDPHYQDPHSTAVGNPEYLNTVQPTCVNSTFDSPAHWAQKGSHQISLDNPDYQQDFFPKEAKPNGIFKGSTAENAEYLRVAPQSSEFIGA
Where Activity equals or exceeds 60%, the correct label is Met; where it does not, the label is Not met.

// query Is Activity at least 60%? Consider Cc1ccc(S(=O)(=O)N2CC(CCn3cnc4c(Br)ncnc43)Oc3ccc(C)cc32)cc1 (stereo not given)
// result Met

// query Is Activity at least 60%? Consider Cc1ccc(S(=O)(=O)N2CC(CCn3cnc4c(Cl)nc(Cl)nc43)Oc3ccc(C)cc32)cc1 (stereo not given)
// result Met

// query Is Activity at least 60%? Consider Cc1ccc(S(=O)(=O)N2CC(CCn3cnc4c(Cl)nc(Cl)nc43)Oc3cc(Cl)ccc32)cc1 (stereo not given)
// result Not met

// query Is Activity at least 60%? Consider Cc1ccc(S(=O)(=O)N2CC(CCn3cnc4c(Br)ncnc43)Oc3cc(Cl)ccc32)cc1 (stereo not given)
// result Met
